Experiment: chemical genetic growth profiling, strain panel (AID 1159580);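 also: tested at 20 µM; growth read once vehicle control cultures reached saturation at 30 °C; 1 = growth at the plate median or of vehicle wells; lower values mean less growth of the strain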
Conditions: S. cerevisiae deletion strains, growth OD, locus YDR101C, strain arx1
Screen size: about 5,500 compounds; about 2,000 (36%) were called active. Inconclusive results (about 18%) are left out. Rule as the data show it: active = normalized growth mostly below about 0.91 (no sharp cut-off); inconclusive = no clear call, values can overlap the other calls; inactive = mostly above about 0.92. The list shows a part of the results.
I would appreciate it if you answered using one of these outcomes: True (active), False (inactive)

{"compound": "Nc1nc2ncc(CNc3ccc(C(=O)N[C@@H](CCC(=O)O)C(=O)O)cc3)nc2c(=O)[nH]1", "answer_label": "False"}
{"compound": "CO[C@@H]1[C@@H](O[C@@H]2O[C@H](C)[C@@H](O[C@H]3C[C@@](C)(O)[C@H](O)[C@H](C)O3)[C@H](N(C)C)[C@H]2O)[C@@H](CC=O)C[C@@H](C)[C@@H](O[C@H]2CC[C@H](N(C)C)[C@@H](C)O2)/C=C/C=C/C[C@H](C)OC(=O)C[C@H]1O", "answer_label": "False"}
{"compound": "O=C(O)CCCCCCCCCCCCC1C=CCC1 (stereo not drawn)", "answer_label": "True"}
{"compound": "Nc1nc(N)c2nc(CNc3ccc(C(=O)NC(CCC(=O)O)C(=O)O)cc3)cnc2n1 (stereo not drawn)", "answer_label": "False"}
{"compound": "CCCNC(C)C(=O)Nc1ccccc1C (stereo not drawn)", "answer_label": "False"}

Proceed to the following item.
QUERY: Tell me the recorded outcome of this test for COc1ccccc1N1CCNCC1 .
RESULT: False

====

Test: chemical genetic growth profiling, strain panel (AID 1159580)
Conditions: S. cerevisiae deletion strains, growth OD, locus YKL009W, strain mrt4, active compounds read low
The whole screen tested about 5,500 compounds, of which about 2,000 (36%) were called active. About 18% were inconclusive and are not listed. This is one part of the list.
readout: normalized growth
Give bare numbers.

{"molecule": "COc1cc2c3cc1Oc1cc(ccc1O)OC1c4c(cc(OC)c(O)c4Oc4ccc(cc4)CC3N(C)CC2)CCN1C (stereo not drawn)", "number": 0.977}
{"molecule": "C[C@H](COc1ccccc1)N[C@H](C)[C@H](O)c1ccc(O)cc1", "number": 0.99}
{"molecule": "CC[C@@H]1[C@@H](O)N2C3C[C@H]1C1C(O)[C@]4(C[C@@H]12)c1ccccc1N(C)[C@@H]34 (stereo partly drawn)", "number": 1.02}
{"molecule": "Cc1cccc(CN2CCN(C(c3ccccc3)c3ccc(Cl)cc3)CC2)c1 (stereo not drawn)", "number": 0.971}
{"molecule": "COc1cc2c(cc1O)CC1c3c(cc(O)c(OC)c3-2)CCN1C (stereo not drawn)", "number": 1}
{"molecule": "c1ccc2[nH]c(-c3cscn3)nc2c1", "number": 1.02}
{"molecule": "COc1ccccc1N1CCNCC1", "number": 0.986}
{"molecule": "CC(Cc1ccc(O)c(O)c1)(NN)C(=O)O (stereo not drawn)", "number": 0.991}

The following molecules each have a reported value; give each one's normalized growth.
1. CO[C@@H]1C[C@@H](C[C@H]2CC[C@H](C)[C@H]([C@@H](C)C(=O)O)O2)O[C@]2(O[C@](C)([C@H]3CC[C@@](C)(C4O[C@@H](C5O[C@@](O)(CO)[C@H](C)C[C@@H]5C)C[C@@H]4C)O3)C[C@H]2C)[C@@H]1C (stereo partly drawn)
2. CC(=O)Oc1cc(C)c2c(c1C(OC(C)=O)OC(C)=O)Oc1c(c(C)c(OC(C)=O)c3c1C(OC(C)=O)OC3=O)OC2=O (stereo not drawn)
3. C[C@@H]1CC2C3CCC4=CC(=O)C=C[C@]4(C)[C@@]3(F)[C@@H](O)C[C@]2(C)[C@@]1(O)C(=O)COP(=O)(O)O (stereo partly drawn)
4. CCOC(=O)c1ccc(N)cc1

RESULT:
1. 0.98
2. 1
3. 1
4. 0.976

The following molecules each have a reported value; give each one's normalized growth.
1. CCN(CC)CCOC(=O)C(Cc1cccc2ccccc12)CC1CCCO1 (stereo not drawn)
2. CCCSP(=O)(OCC)SCCC
3. S=c1[nH]c2ccccc2s1

RESULT:
0.989
1.01
0.996

The following molecules each have a reported value; give each one's normalized growth.
1. CC[C@@]1(C2O[C@@H](C3O[C@@](O)(CC)[C@H](C)C[C@@H]3C)C[C@@H]2C)CC[C@H]([C@]2(C)CCC3(C[C@H](O)[C@@H](C)[C@@H]([C@H](C)[C@@H](OC)[C@H](C)C(=O)O)O3)O2)O1 (stereo partly drawn)
2. NCc1ccc(S(N)(=O)=O)cc1

RESULT:
[1, 0.974]

====

Assay: chemical genetic growth profiling, strain panel (AID 1159580);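 also: tested at 20 µM; growth read once vehicle control cultures reached saturation at 30 °C; 1 = growth at the plate median or of vehicle wells; lower values mean less growth of the strain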
Conditions: S. cerevisiae deletion strains, growth OD, locus YML016C, strain PPZ1
In all, about 5,500 compounds went through this assay and about 2,000 (36%) were called active. About 18% were inconclusive and are not listed. No stated cut-off is given here; in the data, active means normalized growth mostly below about 0.91 (no sharp cut-off); inconclusive means no clear call, values can overlap the other calls; inactive means mostly above about 0.92. The list shows a part of the results.
I would appreciate it if you answered using one of these outcomes: active, inactive

QUERY: Tell me the recorded outcome of this test for O=c1ccn([C@@H]2O[C@H](COP(=O)(O)OP(=O)(O)OP(=O)(O)O)[C@@H](O)[C@H]2O)c(=O)[nH]1 .
RESULT: inactive

====

Experiment: chemical genetic growth profiling, strain panel (AID 1159580);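 also: tested at 20 µM; growth read once vehicle control cultures reached saturation at 30 °C; 1 = growth at the plate median or of vehicle wells; lower values mean less growth of the strain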
Conditions: S. cerevisiae deletion strains, growth OD, locus YBR231C, strain swc5, active compounds read low
The campaign covered roughly 5,500 compounds. About 2,000 (36%) were called active. Roughly 18% stayed inconclusive and do not appear here. The list shows a part of the results.
readout: normalized growth
Answers are plain numbers.

{"compound": "NC(=O)c1cnccn1", "normalized growth": 0.984}
{"compound": "CCCN(CCC)C(=O)C(CCC(=O)O)NC(=O)c1ccccc1 (configuration not stated)", "normalized growth": 0.979}
{"compound": "Nc1c(Br)cc(Br)cc1CNC1CCC(O)CC1 (configuration not stated)", "normalized growth": 1.01}
{"compound": "CC1(C)O[C@@H]2CC3C4CCC5=CC(=O)C=C[C@]5(C)C4[C@@H](O)C[C@]3(C)[C@]2(C(=O)CO)O1 (some centres not stated)", "normalized growth": 1.01}

The following compounds each have a reported value; give each one's normalized growth.
1. CCN(CC)CCOC(=O)C(Cc1cccc2ccccc12)CC1CCCO1 (configuration not stated)
2. COc1ccc2c(c1O)-c1c(OC)c(OC)cc3c1[C@H](C2)N(C)CC3
3. OC/C=C/c1ccc(O)c(O)c1
4. COc1ccc(-c2cc(C(F)F)nn2-c2ccc(S(N)(=O)=O)cc2)cc1F
5. CCOC(=O)C(C)(N)Cc1ccc(O)c(O)c1 (configuration not stated)
6. COc1cc2c(cc1O)CC1c3c(cc(O)c(OC)c3-2)CCN1C (configuration not stated)
7. CC(=O)O[C@H]1C[C@@H](OC(C)=O)C(C)(C)C2C[C@@H](OC(C)=O)[C@]3(C)C(CC[C@@]4(C)[C@H](c5ccoc5)C(=O)[C@H]5O[C@]543)[C@]21C (some centres not stated)
8. O=C(NC(=O)c1c(F)cccc1F)Nc1cc(Cl)c(OC(F)(F)C(F)C(F)(F)F)cc1Cl (configuration not stated)

RESULT:
1. 0.995
2. 0.991
3. 0.993
4. 1.01
5. 0.992
6. 1.01
7. 1
8. 0.977

The following compounds each have a reported value; give each one's normalized growth.
1. CCOC(=O)c1ccc(N)cc1
2. CCC(COC(=O)c1cc(OC)c(OC)c(OC)c1)(c1ccccc1)N(C)C (configuration not stated)

RESULT:
1
0.985

The following compounds each have a reported value; give each one's normalized growth.
1. CC(Cc1ccc(O)c(O)c1)(NN)C(=O)O (configuration not stated)
2. CCOC(N)=O
3. Oc1ccc(/C=C/c2cc(O)cc(O)c2)cc1

RESULT:
1. 0.997
2. 0.995
3. 0.988

====

Test: chemical genetic growth profiling, strain panel (AID 1159580);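 also: tested at 20 µM; growth read once vehicle control cultures reached saturation at 30 °C; 1 = growth at the plate median or of vehicle wells; lower values mean less growth of the strain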
Conditions: S. cerevisiae deletion strains, growth OD, locus YDR150W, strain NUM1, active compounds read low
Screen size: about 5,500 compounds; about 2,000 (36%) were called active. About 18% were inconclusive and are not listed. The list shows a part of the results.
readout: normalized growth
Numbers only.

{"molecule": "COc1ccccc1N1CCN(CCCNc2c(C)c(=O)n(C)c(=O)n2C)CC1", "normalized growth": 1}
{"molecule": "CC(C)C1=CC2=CCC3[C@](C)(CCC[C@]3(C)C(=O)O)C2CC1 (some centres undefined)", "normalized growth": 0.981}
{"molecule": "O=C(/C=C/c1ccc(O)c(O)c1)O[C@@H]1C[C@](O)(C(=O)O)C[C@@H](O)[C@H]1O", "normalized growth": 1.01}
{"molecule": "NC(=O)CCSCCC(N)=O", "normalized growth": 0.999}
{"molecule": "Nc1nc(N)c2nc(CNc3ccc(C(=O)NC(CCC(=O)O)C(=O)O)cc3)cnc2n1 (centres undefined)", "normalized growth": 1}
{"molecule": "COc1cc2c3cc1Oc1cc(ccc1O)OC1c4c(cc(OC)c(O)c4Oc4ccc(cc4)CC3N(C)CC2)CCN1C (centres undefined)", "normalized growth": 0.995}
{"molecule": "Cc1cc(/C=N/NC(N)=S)c2c(C)ccc(C(C)C)cc1-2", "normalized growth": 1}
{"molecule": "NC(=O)c1cc[n+](CC2=C(C(=O)O)N3C(=O)C(NC(=O)C(c4ccccc4)S(=O)(=O)[O-])C3SC2)cc1 (centres undefined)", "normalized growth": 0.988}

The following molecules each have a reported value; give each one's normalized growth.
1. NC(=O)CCC(N)C(=O)O (centres undefined)
2. CCCCCCCC1CC/C(=C\c2ccc(/C=C3\CCC(CCCCCCC)C3=O)cc2)C1=O (centres undefined)
3. O=C(O)CC(CC(=O)O)c1ccc(C(F)(F)F)cc1
4. CCCN1CCO[C@@H]2c3cc(O)ccc3OC[C@H]21
5. CCC(CO)NC(=O)C1C=C2c3cccc4c3c(cn4C)CC2N(C)C1 (centres undefined)
6. Cc1ccc(CSC(=N)N)cc1

RESULT:
1. 0.999
2. 0.936
3. 0.938
4. 0.999
5. 1
6. 0.998
